Listed next: entries and their corresponding Population Mitotic Cells (%).
# System: Fibroblast
# assayDetails: Multiplex assay against human fibroblast
# Type: toxicity, cell-based
# testSettings: 12 h, 1 µM, compound concentration 1 uM, number of replicates 2
endpointName: Population Mitotic Cells (%)

1. CCNc1ccc(-c2nn(-c3ccccc3C)c3c2C(C)Cc2nc(NC(=O)OC)sc2-3)cn1.O=C(O)C(F)(F)F (stereo not drawn) :: 65%
2. CS(=O)(=O)c1ccc(C(=O)Nc2cccc(COc3ccc(Br)cc3CN3CC[C@H](O)C3)c2)cc1.O=CO :: 52%
3. Cc1onc(-c2ccccc2Cl)c1C(=O)N(C)c1ccc(Cl)cc1 :: 64%

###

# Tested on: HEK-293T
# assayDetails: Multiplex assay against HEK293T
# Type: toxicity, cell-based
# testSettings: human, 48 h, 1 µM, compound concentration 1 uM, number of replicates 2
endpointName: Population Healthy Nuclei (%)

1) CC(C)S(=O)(=O)c1ccccc1Nc1nc(N[C@@H]2CCCN(CCCCCCCNC(=O)COc3cccc4c3C(=O)N(C3CCC(=O)N(C)C3=O)C4=O)C2)ncc1Cl (some centres undefined) :: 85
2) CS(=O)(=O)c1ccc(C(=O)Nc2cc(F)cc(COc3ccc(Br)cc3CN3CC[C@H](O)C3)c2)c(Cl)c1.O=CO :: 85
3) Cc1c(C(=O)Nc2ccc(N3C[C@@H](C)O[C@@H](C)C3)nc2)cccc1-c1ccc(OC(F)(F)F)cc1 :: 84
4) CS(=O)(=O)c1ccc(C(=O)Nc2cccc(COc3ccc(Br)cc3CN3CC[C@@H](O)C3)c2)c(Cl)c1.O=CO :: 85

###

# Test system: HEK-293T
# assayDetails: Multiplex assay against HEK293T
# Format: toxicity, cell-based
# testSettings: human, 48 h, 1 µM, compound concentration 1 uM, number of replicates 2
endpointName: Population Pyknosed Nuclei (%)

1) CN[C@@H]1CC[C@@H](c2ccc(Cl)c(Cl)c2)c2ccccc21.Cl :: 3
2) COc1cc(Br)c(S(=O)(=O)Nc2ccc(C(F)(F)F)c(O[C@@H]3CCN(C)C3)c2)cc1OC :: 2
3) Cc1c(C(=O)Nc2ccc(N3C[C@@H](C)O[C@@H](C)C3)nc2)cccc1-c1ccc(OC(F)(F)F)cc1 :: 3
4) CC(C)N(CCCCOCC(=O)NS(C)(=O)=O)c1cnc(-c2ccccc2)c(-c2ccccc2)n1 :: 3
5) Cc1cc(NC(=O)c2cccc(NC(=O)/C=C/CN(C)C)c2)ccc1Nc1nccc(-c2cccnc2)n1 :: 11
6) CCCNc1ccc2ncc(-c3ccncc3)n2n1 :: 4
7) CC1(C)C(=O)N([C@H]2CCc3c(O)cccc32)c2nc(Nc3cccc(CN4CCCC4)c3)ncc21 :: 4
8) CN1CCCN(C(=O)c2cccc(-c3ccc(/C=C4/C(=O)Nc5ccc(Cl)cc54)o3)c2)CC1 :: 2

###

Listed next: entries and their corresponding Population Normal (%).
# System: HEK-293T
# assayDetails: Multiplex assay against HEK293T
# Type: toxicity, cell-based
# testSettings: human, 48 h, 10 µM, compound concentration 10 uM, number of replicates 2
endpointName: Population Normal (%)

1. C[C@@H](OC[C@@]1(c2ccccc2)CC[C@]2(CCC(=O)N2)CN1)c1cc(C(F)(F)F)cc(C(F)(F)F)c1 :: 90
2. CN1CCN(c2ccc(-n3cc(-c4ccncc4OCC4CCNCC4)cn3)cc2)CC1 :: 90
3. Br.Cc1cccc(C2CN(C)CCc3c2cc(O)c(O)c3Cl)c1 (stereo unspecified) :: 88
4. Cc1onc(-c2ccccc2Cl)c1C(=O)N(C)c1ccc(Cl)cc1 :: 91
5. O=C(NCc1ccc(F)cc1)N1CCN2C(=O)OC(c3ccccc3)(c3ccccc3)C2C1 (stereo unspecified) :: 93
6. CCCCOc1c(C(=O)c2c(F)cc(C)cc2F)c[nH]c2nncc1-2 :: 87
7. CCn1c(-c2nonc2N)nc2cncc(C(=O)N3CC[C@H](N)C3)c21.Cl :: 88
8. C=CC(=O)Nc1ccc2[nH]c(=O)n(C3CCN(Cc4ccc(-c5ccc6c(c5)NC(=O)CO6)cc4)CC3)c2c1 :: 86
9. COc1cc(Br)c(S(=O)(=O)Nc2ccc(C(F)(F)F)c(O[C@@H]3CCN(C)C3)c2)cc1OC :: 90
10. CC(C)N(CCCCOCC(=O)NS(C)(=O)=O)c1cnc(-c2ccccc2)c(-c2ccccc2)n1 :: 90
11. COc1cccc(Cn2cc(C(=O)Nc3ccc(C)c(S(=O)(=O)N4CCOCC4)c3)c(-c3ccc(C)cc3)n2)c1 :: 90
